Data credit: PubChem BioAssay AID248

Tested on: L1210 leukemia ip in BDF1 mice, survival T/C
Assay: NCI In Vivo Anticancer Drug Screen. Data for tumor model L1210 Leukemia (intraperitoneal) in B6D2F1 (BDF1) mice
Settings: endpoint: mean survival time; dose: 200.0 mg/kg/injection; schedule: Q01DX001 (ip); vehicle: Klucel (hydroxypropylcellulose) (HPC); higher = longer survival
Toxic doses and inconclusive results are not listed.
Listing of recorded T/C by entry.

Here are 6 molecules together with their reported answers.
CCCCN(C)N=Nc1ccc(Cl)cc1C(N)=O : 107 % of control
Cc1c(N)c(C)c(F)c(-c2c(N)c(C)c(N)c(C)c2F)c1N : 97 % of control
Nc1ccc(S(=O)(=O)NCCO)cc1[N+](=O)[O-] : 106 % of control
Cc1cc(C)c(Br)cc1N : 95 % of control
Oc1c(Br)cc(Br)cc1/C=N/N=C/c1cc(Br)cc(Br)c1O : 90 % of control
COc1ccccc1-n1c(=O)c(N=Nc2ccc(Br)cc2)c(O)n(-c2ccccc2C)c1=S : 98 % of control

The molecule listed as Cc1cccc(NC(=O)Nc2cc(C)on2)c1 shows T/C equal to 95 % of control

So for COC(=O)C1C(c2ccc(-c3ccccc3)cc2)N1C1CCCCC1 (stereo not drawn) , the logged T/C turned out to be 95 % of control
